Each entry below carries its reported H2 permeability.
Measure name: H2 permeability (Barrer)

INSERT INTO assay_data (compound, units_text, readout_number) VALUES
  ('*c1ccc(-c2ccc(N3C(=O)c4ccc([Si](C)(C)c5ccc6c(c5)C(=O)N(*)C6=O)cc4C3=O)c(OC)c2)cc1OC (repeat unit)', 'Barrer', 9.33),
  ('*c1ccc(Oc2ccc(C(*)(c3ccccc3)C(F)(F)F)cc2)cc1 (repeat unit)', 'Barrer', 28),
  ('*c1cccc(-c2nc3cc(-c4ccc5[nH]c(*)nc5c4)ccc3[nH]2)c1 (repeat unit)', 'Barrer', 0.615),
  ('*c1cccc(Oc2ccc(C(c3ccc(Oc4cccc(-n5c(=O)c6cc7c(=O)n(*)c(=O)c7cc6c5=O)c4)cc3)(C(F)(F)F)C(F)(F)F)cc2)c1 (repeat unit)', 'Barrer', 19),
  ('*c1ccc(Cc2ccc(N3C(=O)c4ccc(Oc5ccc6c(c5)C(=O)N(*)C6=O)cc4C3=O)cc2)cc1 (repeat unit)', 'Barrer', 5.62),
  ('*Oc1c(Br)cc(C(C)(C)c2cc(Br)c(OC(=O)c3cc(C(*)=O)cc(C(C)(C)C)c3)c(Br)c2)cc1Br (repeat unit)', 'Barrer', 54),
  ('*OC1OC(COCC)C(*)C(OCC)C1OCC (repeat unit)', 'Barrer', 68),
  ('*CCSS* (repeat unit)', 'Barrer', 1.57);

---

Each entry below carries its reported CO2 permeability.
Measure name: CO2 permeability (Barrer)

INSERT INTO results (compound, readout_number) VALUES
  ('*C(=C(*)c1ccc2c(c1)C1(CC1)c1ccccc1-2)c1ccccc1 (repeat unit)', 3200),
  ('*c1c(C)cc(-c2cc(C)c(-n3c(=O)c4cc5oc6cc7c(cc6oc5cc4c3=O)C3(CC(C)(C)c4cc5oc6cc8c(=O)n(*)c(=O)c8cc6oc5cc43)CC7(C)C)c3ccccc23)c2ccccc12 (repeat unit)', 2980),
  ('*c1ccc(S(=O)(=O)c2ccc(N3C(=O)c4ccc(-c5ccc6c(c5)C(=O)N(*)C6=O)cc4C3=O)cc2)cc1 (repeat unit)', 2.16);

---

Binary call on O2 permeability: true from 3 Barrer upward, false beneath that.

INSERT INTO results (compound, class) VALUES
  ('*c1cccc(N2C(=O)c3ccc(C(c4ccc5c(c4)C(=O)N(*)C5=O)(C(F)(F)F)C(F)(F)F)cc3C2=O)c1 (repeat unit)', 'false'),
  ('*c1ccc(Cc2ccc(N3C(=O)c4cc(Oc5ccccc5)c(-c5cc6c(cc5Oc5ccccc5)C(=O)N(*)C6=O)cc4C3=O)cc2)cc1 (repeat unit)', 'true'),
  ('*CC(*)c1ccc(C([Si](C)(C)C)[Si](C)(C)C)cc1 (repeat unit)', 'true'),
  ('*Oc1ccc(C(c2ccc(Oc3ccc(C(=O)c4ccc(C(c5ccc(C(=O)c6ccc(*)cc6)cc5)(C(F)(F)F)C(F)(F)F)cc4)cc3)cc2)(C(F)(F)F)C(F)(F)F)cc1 (repeat unit)', 'true'),
  ('*Nc1ccc(*)cc1 (repeat unit)', 'false'),
  ('*c1ccc(N2C(=O)c3ccc([Si](C)(C)c4ccc5c(c4)C(=O)N(*)C5=O)cc3C2=O)cc1 (repeat unit)', 'false'),
  ('*Oc1ccc(C(=O)c2ccc(-c3ccc(C(=O)c4ccc(Oc5ccc(S(=O)(=O)c6ccc(*)cc6)cc5)cc4)cc3)cc2)cc1 (repeat unit)', 'false');

---

Each entry below carries its reported N2 permeability.
Measure name: N2 permeability (Barrer)

INSERT INTO results (compound, readout_number) VALUES
  ('*Oc1ccc(C(C)(C)c2ccc(OC(=O)c3cccc(C(=O)Oc4cc(-c5cc(*)cc6ccccc56)c5ccccc5c4)c3)cc2)cc1 (repeat unit)', 0.139),
  ('*OCCCCCC(*)=O (repeat unit)', 0.59),
  ('*c1ccc(C(c2ccc(N3C(=O)c4ccc(C(=O)c5ccc6c(c5)C(=O)N(*)C6=O)cc4C3=O)cc2)(C(F)(F)F)C(F)(F)F)cc1 (repeat unit)', 0.375),
  ('*Oc1c(Br)cc(C(C)(C)c2cc(Br)c(OC(=O)c3cc(C(*)=O)cc(C(C)(C)C)c3)c(Br)c2)cc1Br (repeat unit)', 0.89),
  ('*c1c(C)cc(-c2cc(C)c(N3C(=O)c4cc5c(cc4C3=O)C3(C)CCC5(C)c4cc5c(cc43)C(=O)N(*)C5=O)c3ccccc23)c2ccccc12 (repeat unit)', 208),
  ('*c1ccc(Cc2ccc(N3C(=O)c4ccc(C(c5ccc6c(c5)C(=O)N(*)C6=O)(C(F)(F)F)C(F)(F)F)cc4C3=O)c(C)c2)cc1C (repeat unit)', 0.406),
  ('*c1ccc(Sc2ccc(N3C(=O)c4ccc(-c5ccc6c(c5)C(=O)N(*)C6=O)cc4C3=O)cc2)cc1 (repeat unit)', 0.022),
  ('*C(=C(*)c1ccc2c(c1)C(C)(C)CC2(C)C)c1ccc(F)cc1 (repeat unit)', 15600),
  ('*C/C=C\C* (repeat unit)', 15.8),
  ('*C(=C(*)c1ccc(C(C)C)cc1)c1ccccc1 (repeat unit)', 150),
  ('*Oc1ccc(Cc2ccc(Oc3c(F)c(F)c(COC(C4CCCC(C(OCc5c(F)c(F)c(*)c(F)c5F)(C(F)(F)F)C(F)(F)F)C4)(C(F)(F)F)C(F)(F)F)c(F)c3F)cc2)cc1 (repeat unit)', 0.55),
  ('*c1cc(C(c2ccc(O)c(N3C(=O)c4cc5c(cc4C3=O)C3(C)c4ccccc4C5(C)c4cc5c(cc43)C(=O)N(*)C5=O)c2)(C(F)(F)F)C(F)(F)F)ccc1O (repeat unit)', 1.2),
  ('*Oc1cc2c(cc1O*)C1(c3ccccc3-2)c2ccccc2-c2cc3c(cc21)Oc1c(C#N)c(*)c(*)c(C#N)c1O3 (repeat unit)', 442);

---

Measure name: H2 permeability (Barrer)

INSERT INTO measurements (compound, measure_name, units_text, readout_number) VALUES
  ('*c1c(C)cc2c(c1C)C1c3ccccc3C2c2cc(C)c(N3C(=O)C4C5C=CC(C6C(=O)N(*)C(=O)C56)C4C3=O)c(C)c21 (repeat unit)', 'H2 permeability', 'Barrer', 1600),
  ('*c1cc(C)c(C)c(N2C(=O)c3ccc(Oc4cc(C)ccc4Oc4ccc5c(c4)C(=O)N(*)C5=O)cc3C2=O)c1C (repeat unit)', 'H2 permeability', 'Barrer', 41),
  ('*Oc1ccc(C(C)(C)c2ccc(Oc3ccc(S(=O)(=O)c4ccc(*)cc4)cc3)cc2)cc1 (repeat unit)', 'H2 permeability', 'Barrer', 14),
  ('*Cc1ccc(C*)c(Br)c1 (repeat unit)', 'H2 permeability', 'Barrer', 0.452),
  ('*CC(*)(C)C(=O)OC(C)(C)C (repeat unit)', 'H2 permeability', 'Barrer', 62.2),
  ('*c1c(C)cc(-c2cc(C)c(-c3cc(C)c(*)c(C)c3)cc2C)cc1C (repeat unit)', 'H2 permeability', 'Barrer', 350),
  ('*Oc1cc2c(cc1O*)C(C)(C)CC1(CC(C)(C)c3cc4c(cc3O1)Oc1c(C#N)c(*)c(*)c(C#N)c1O4)O2 (repeat unit)', 'H2 permeability', 'Barrer', 750),
  ('*c1c(C)cc2c(c1C)C1c3ccccc3C2c2cc(C)c(N3C(=O)c4ccc5c6c(ccc(c46)C3=O)C(=O)N(*)C5=O)c(C)c21 (repeat unit)', 'H2 permeability', 'Barrer', 1480);

---

Each entry below carries its reported log10 CH4 permeability.
Measure name: log10 CH4 permeability (log10 of the value in Barrer)

INSERT INTO measurements (molecule, measure_name, readout_number) VALUES
  ('*OC(=O)Oc1c(Cl)cc(C(C)(C)c2cc(Cl)c(*)c(Cl)c2)cc1Cl (repeat unit)', 'log10 CH4 permeability', -0.65),
  ('*CC(*)OC(=O)c1ccccc1C (repeat unit)', 'log10 CH4 permeability', -0.94),
  ('*CC(C)C(=O)OCCOC(=O)C(C)C* (repeat unit)', 'log10 CH4 permeability', 0.68),
  ('*CC(*)OC(=O)c1cccc(C)c1 (repeat unit)', 'log10 CH4 permeability', -0.93),
  ('*C(=C(*)c1ccc2c(c1)C(C)(C)c1ccccc1-2)c1cc(F)cc(F)c1 (repeat unit)', 'log10 CH4 permeability', 3.62),
  ('*c1ccc(Cc2ccc(N3C(=O)c4ccc(C(c5ccc6c(c5)C(=O)N(*)C6=O)(C(F)(F)F)C(F)(F)F)cc4C3=O)c(Cl)c2)cc1Cl (repeat unit)', 'log10 CH4 permeability', -0.92),
  ('*c1cc(C(c2ccc(O)c(N3C(=O)c4ccc(C(c5ccc6c(c5)C(=O)N(*)C6=O)(C(F)(F)F)C(F)(F)F)cc4C3=O)c2)(C(F)(F)F)C(F)(F)F)ccc1O (repeat unit)', 'log10 CH4 permeability', -1.10),
  ('*c1ccc2c(c1)Oc1ccc(C3(c4ccc5c(c4)Oc4ccc(*)cc4O5)c4ccccc4-c4ccccc43)cc1O2 (repeat unit)', 'log10 CH4 permeability', -0.25);
